species: Homo sapiens; assay: Liver toxicity in human assessed as induction of drug-induced liver injury by measuring verified drug-induced liver injury concern status
readout-type: DILI_Concern

Known results for compounds:
Enquiry: Look at this compound and give its reported DILI_Concern. CSc1ccc2c(c1)N(CCC1CCCCN1C)c1ccccc1S2 (configuration not stated)
Return: Less-Dili-Concern

Enquiry: Look at this compound and give its reported DILI_Concern. CN1C(=O)C(O)N=C(c2ccccc2)c2cc(Cl)ccc21 (configuration not stated)
Return: Ambiguous-Dili-Concern

Enquiry: Look at this compound and give its reported DILI_Concern. O=C(O)Cc1ccccc1Nc1c(Cl)cccc1Cl
Return: Most-Dili-Concern

Enquiry: Look at this compound and give its reported DILI_Concern. N[C@@H]1C[C@H]1c1ccccc1.N[C@H]1C[C@@H]1c1ccccc1
Return: Less-Dili-Concern

Enquiry: Look at this compound and give its reported DILI_Concern. O=C(c1cc(O)c(O)c(O)c1)c1ccc(O)c(O)c1O
Return: Most-Dili-Concern

***
Enquiry: Look at this compound and give its reported DILI_Concern. CCc1cc(C(N)=S)ccn1 [ETHIONAMIDE]
Return: Less-Dili-Concern

Enquiry: Look at this compound and give its reported DILI_Concern. C=CCOc1ccc(CC(=O)O)cc1Cl
Return: Most-Dili-Concern

Enquiry: Look at this compound and give its reported DILI_Concern. O=S(=O)([O-])CCS.[Na+]
Return: Ambiguous-Dili-Concern

Enquiry: Look at this compound and give its reported DILI_Concern. CN(C)CCCC1c2ccccc2Nc2ccc(Cl)cc21 (configuration not stated)
Return: Most-Dili-Concern

Enquiry: Look at this compound and give its reported DILI_Concern. C#C[C@]1(O)CC[C@H]2[C@@H]3CCC4=CC(=O)CC[C@@H]4[C@H]3CC[C@@]21CC
Return: No-Dili-Concern

Enquiry: Look at this compound and give its reported DILI_Concern. COCCCOc1ccnc(C[S+]([O-])c2nc3ccccc3[nH]2)c1C (configuration not stated)
Return: Less-Dili-Concern

Enquiry: Look at this compound and give its reported DILI_Concern. CN(C)CCc1c[nH]c2ccc(Cn3cncn3)cc12
Return: No-Dili-Concern
